study.system: Somatostatin receptor type 2 (Rattus norvegicus)
Sequence (P30680 whole entry): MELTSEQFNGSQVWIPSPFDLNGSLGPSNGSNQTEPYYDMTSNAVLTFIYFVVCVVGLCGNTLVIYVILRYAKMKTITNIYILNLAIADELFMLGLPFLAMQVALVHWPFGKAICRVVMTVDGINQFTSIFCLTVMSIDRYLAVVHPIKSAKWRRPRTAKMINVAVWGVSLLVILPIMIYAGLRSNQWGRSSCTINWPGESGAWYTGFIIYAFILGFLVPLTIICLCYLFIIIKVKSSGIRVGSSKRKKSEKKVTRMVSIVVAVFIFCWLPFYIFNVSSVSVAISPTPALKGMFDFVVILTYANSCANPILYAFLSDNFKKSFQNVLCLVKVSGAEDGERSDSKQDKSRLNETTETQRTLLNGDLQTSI
measured.metric: Kd (µM)

Here's what some known entries look like.
smiles.notation | observed
COc1cccc2c1C[C@H]1C[C@@H](C(=O)N3CCN(c4ccc(S(N)(=O)=O)cc4)CC3)CN(C)[C@@H]1C2 | 9.12
COc1cccc2c1C[C@H]1C[C@@H](C(=O)N3CCN(c4cccc(C(F)(F)F)c4)CC3)CN(C)[C@@H]1C2 | 13.2
COc1cccc2c1C[C@H]1C[C@@H](C(=O)N3CCN(c4ccncc4)CC3)CN(C)[C@@H]1C2 | 17.8

[P] COc1cccc2c1C[C@H]1C[C@@H](C(=O)N3CCC(n4c(=O)[nH]c5ccccc54)CC3)CN(C)[C@@H]1C2
[Q] COc1cccc2c1C[C@H]1C[C@@H](C(=O)N3CCN(c4ccc(C(F)(F)F)cc4)CC3)CN(C)[C@@H]1C2
*Q* Sorting by Kd in descending order, would P or Q appear first? To answer, give the label that identifies your chosen option.
*A* Q

[A] COc1cccc2c1C[C@H]1C[C@@H](C(=O)N3CCN(c4ccc(C(F)(F)F)cc4[N+](=O)[O-])CC3)CN(C)[C@@H]1C2
[B] COc1cccc2c1C[C@H]1C[C@@H](C(=O)N3CCCN(c4ccccn4)CC3)CN(C)[C@@H]1C2
*Q* Quick check, higher Kd between A and B ? // return label of chosen record
*A* B
(B: 34.7 µM, A: 4.9 µM)
